System: T1, RRM1 analog R27A (Homo sapiens, UniProt Q8IUH3 23-202, R27A;F124A;Y165A)
T1 sequence: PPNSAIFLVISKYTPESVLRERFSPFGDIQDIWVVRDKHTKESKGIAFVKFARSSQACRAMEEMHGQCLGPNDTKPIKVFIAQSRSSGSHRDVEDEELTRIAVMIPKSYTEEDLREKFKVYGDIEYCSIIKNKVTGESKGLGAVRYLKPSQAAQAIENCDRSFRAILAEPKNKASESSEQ
Method: fluorescence polarization
Measured Quantity: Kd (µM)
Respond numerically; units are µM and should not be typed.

Per the records, this binder ( GGACGG (ssRNA) [GGACGG RNA] ) has Kd equal to 14.4
